Data provenance is the RNAGym collection of RNA variant scans (doi:10.7554/elife.90254).

B1: LINE1-full (parent)
chain: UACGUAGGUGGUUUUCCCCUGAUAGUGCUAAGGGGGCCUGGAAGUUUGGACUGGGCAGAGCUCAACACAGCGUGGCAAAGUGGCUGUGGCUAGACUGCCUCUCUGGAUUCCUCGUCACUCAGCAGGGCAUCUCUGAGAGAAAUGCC

- Variants of: B1
- measurement protocol: self-cleavage, relative activity (ratio to wild type); higher = more cleavage; in vitro, sequencing; the parent is a self-cleaving ribozyme
recorded endpoint: self-cleavage
Answers are plain numbers.

Observe how each entry below is paired with its result.
U96A A138G; 0.07
U23C C111U; 1.34
A43G A65G; 0.09
G106C U108C; 2.2
A50C U85C; 0.06
A30C A65G; 0.08
U52A U130C; 1.42
U23A A64G; 0.23

Can you give me self-cleavage for all of these, one by one?
1. U52A U134C
2. U96C A124G

2.25
0.06

Can you give me self-cleavage for all of these, one by one?
1. A43G A50C
2. G35A A121U
3. A69U A117G
4. C37G U102A
5. G53A U62C

1. 1.73
2. 0.97
3. 0.08
4. 0.9
5. 0.05
